Biological target: T1, biotinylated human VWF cysteine knot (CK) domain construct (human, UniProt P04275 2724-2813, biotinylated in vitro (BirA) on the biotinylation tag; one N-glycan)
T1 construct: Expressed in HEK293 EBNA cells; disulfide-linked homodimer; also called human VWF CK; human VWF CK domain; not shown: in vitro biotinylation tag, HRV-3C site and 3 VWF residues before the CK domain
Assay: SPR, scFv captured via anti-SV5, CK domain injected, pH 5.5, apparent Kd;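 further: scFvs from crude yeast supernatants captured on chip-bound anti-SV5 antibody, Kd computed as koff divided by kon, dimeric CK construct likely makes affinity appear higher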
Reported Kd values follow for various binders
Hi! Could you send only the number? It should be in pM, unit omitted.

binder: 69_Lib8_scFv (scFv, VH-linker-VL; not shown: C-terminal 3xFLAG and SV5 tags) scFv: EVQLVESGGGLVQPGRSLRLSCAASAFTFSNYDMHWVRQAPGKGLEWVSAISGSGDTSDYADSVEGRFTISRDNAKNSLYLQMNSLRAEDTAVYYCVRASWYGTFFDYWGQGTLVTVSSSGGSTITSYNVYYTKLSSSGTDIQMTQSPSSLSASVGDRVTITCRASQSVSGWLAWYQQKPGKAPKLLIYGTSTLQSGVPSRFSGSGSGTDFTLTISSLQPEDVATYYCQQSYSAPYTFGGGTKVEIK
Kd / pM: 859

Give its Kd value. Item: 256_Lib8_scFv (scFv, VH-linker-VL; not shown: C-terminal 3xFLAG and SV5 tags) scFv: EVQLVESGGGLVQPGRSLRLSCAASGFTVSSNAMHWVRQAPGKGLEWVSAIGTFADTDYADSVEGRFTISRDNAKNSLYLQMNSLRAEDTAVYYCAREGAAAGTNFDYWGQGTLVTVSSSGGSTITSYNVYYTKLSSSGTDIQMTQSPSSLSASVGDRVTITCRASQGIRSYLAWYQQKPGKAPKLLIYGASTLEGGVPSRFSGSGSGTDFTLTISSLQPEDVATYYCQQSYSTPPKFGGGTKVEIK
731
